Each recorded value in this set is attributed to ChEMBL document CHEMBL3217410.

target: Adenosine receptor A1 (Homo sapiens); experiment: Agonist activity at human adenosine A1 receptor expressed in CHO cells assessed as Gi-mediated inhibition of forskolin-stimulated SPAP secretion incubated for 10 mins prior to forskolin challenge measured after 5 hrs by spectrophotometry; type: functional, cell-based
Readings of inhibition for the listed molecules
Could you give me the number in %? Just the number is fine.

Consider the following illustrative entries.
CCNC(=O)[C@H]1O[C@@H](n2cnc3c(NCCCNC(=O)COc4ccc(/C=C/C5=[N+]6C(=Cc7ccc(-c8cccs8)n7[B-]6(F)F)C=C5)cc4)ncnc32)[C@H](O)[C@@H]1O 97
CCNC(=O)[C@H]1O[C@@H](n2cnc3c(N)ncnc32)[C@H](O)[C@@H]1O 105

**Query** Please look up its inhibition: `CCNC(=O)[C@H]1O[C@@H](n2cnc3c(NCCCCNC(=O)COc4ccc(/C=C/C5=[N+]6C(=Cc7ccc(-c8cccs8)n7[B-]6(F)F)C=C5)cc4)ncnc32)[C@H](O)[C@@H]1O`
**Result** 101
